Biological target: T1, cyno IL-12RB2 with C-terminal HA tag, transiently expressed on HEK-293T cells (cyno, UniProt A0A2K5VNI7 24-860)
T1 construct: whole, on cells; also called cyno IL-12Rβ2
T1 sequence: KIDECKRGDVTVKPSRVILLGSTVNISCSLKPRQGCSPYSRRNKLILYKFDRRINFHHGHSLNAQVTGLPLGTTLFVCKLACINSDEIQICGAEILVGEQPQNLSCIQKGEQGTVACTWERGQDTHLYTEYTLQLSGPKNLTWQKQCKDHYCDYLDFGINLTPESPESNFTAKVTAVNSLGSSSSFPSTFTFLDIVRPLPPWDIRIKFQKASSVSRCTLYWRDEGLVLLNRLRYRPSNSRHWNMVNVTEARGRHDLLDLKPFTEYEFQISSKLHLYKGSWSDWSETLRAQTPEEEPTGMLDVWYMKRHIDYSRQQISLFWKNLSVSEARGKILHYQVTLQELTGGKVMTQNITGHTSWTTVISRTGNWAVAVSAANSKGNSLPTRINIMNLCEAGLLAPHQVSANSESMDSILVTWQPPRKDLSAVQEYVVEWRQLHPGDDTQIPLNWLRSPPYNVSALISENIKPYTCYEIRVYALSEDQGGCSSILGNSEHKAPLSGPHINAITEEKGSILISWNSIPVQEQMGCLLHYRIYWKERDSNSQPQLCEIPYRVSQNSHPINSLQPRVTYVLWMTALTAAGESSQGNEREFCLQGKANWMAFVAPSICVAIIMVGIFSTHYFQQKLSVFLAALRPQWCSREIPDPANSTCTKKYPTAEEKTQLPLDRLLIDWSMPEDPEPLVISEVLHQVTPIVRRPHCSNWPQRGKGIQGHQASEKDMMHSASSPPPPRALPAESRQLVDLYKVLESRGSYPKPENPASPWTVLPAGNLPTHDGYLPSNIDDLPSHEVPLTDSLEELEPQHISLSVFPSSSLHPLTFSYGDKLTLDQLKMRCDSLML
Test: FACS, periplasmic extract, HEK-293T
// classify: if (FOB < 3 fold) true else false

Please review the entries below; each comes with its answer.
| BINDER | GROUP |
| --- | --- |
| VHH68B2 (VHH) VHH: EVQLVESGGGLVQAGGSLKLSCAASGGTFSSYAMGWFRQAPGKEREFVAAIMRSGDTTVYVDSVKGRFTVSRDNAKNTVYLQMNSLKPEDAAVYYCAAGRPVTRTYYSTYTYPHDYDYWGQGTQVTVSS | false |
| VHH322B2 (VHH) VHH: QLQLVESGGGLVQAGGSLRLSCAASGRTFGIHGMGWFRQAPGKEREFAAAIRWSDGTTIHADSVKGRLTISRDNAKNTVYLQMNSLKPEDTAVYYCAATSNPQFGRNWYTVAAGVEYGYWGQGTQVTVSS | false |
| VHH361B2 (VHH) VHH: QVQLVESGGGLVQTGASLRLSCAASGRTFGRYEMAWFRQAPGKEREFVAHISSSGLTTTYADSVKGRFTISRGNALNTVYLQMNSLKPEDTAVYYCAANVDGSAWSTLGAGMDYWGKGTLVTISS | false |

Then this binder:
(Q) In plain terms, does VHH67B2 (VHH) VHH: QVQLVESGGGLVQPGGSLRLSCAASGFTFSNYAMSWIRQGPERGFEWVSRINSGGGTTSYADSVKGRFTISRDNAKNTLYLQMNSLKPEDTAVYYCAKHSHPDYSSNYYRPGQGTQVTVSS come in under 3 fold for FOB?
(A) true
